Test system: M. tuberculosis H37Rv growth inhibition, 7H9 media
Experiment description: M. tuberculosis growth inhibition, HTS (AID 449762);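 further: bacterial growth assessed after seven days of incubation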
Experimental context: measured here: IC90 growth inhibition
Results filed as inconclusive are left out.
Reported log10 of IC90 values for the following molecules.
Parameter value (number): base-10 log of IC90 in µM.

Look over these answered cases.
Molecule | log10 of IC90
Cc1cc(C)n(-c2nc(Nc3ccccc3C(F)(F)F)nc(-n3nc(C)cc3C)n2)n1 | 0.19
COc1c[nH]n(C2CCCCC2)c(=O)c1=O | 1.26
Cc1ccc(-c2noc(C3CCCN(C(=O)c4ccc(C(C)(C)C)cc4)C3)n2)o1 (stereo unspecified) | 1.74

Problem: Write down the reported log10 of IC90 of O=[N+]([O-])c1cc(-c2ncccn2)c([N+](=O)[O-])s1 , test system: M. tuberculosis H37Rv growth inhibition, 7H9 media.
Result: 1.51

Problem: Could you do the same for CCOC(=O)c1ccc(N=c2sc(C(=O)OC)cc(=O)n2CCCN2CCOCC2)cc1 , please?
Result: 1.08

Problem: Could you do the same for CCN(CC)c1ccc2c(Cl)c(Br)c(=O)oc2c1 , please?
Result: 1.64

Provenance of the data: PubChem BioAssay AID449762
